// values below are reported IC50
- Tested on: AGS
- method-summary: Cytotoxicity against human AGS cells assessed as growth inhibition after 72 hrs by MTT assay

{"molecule": "CC(=O)Oc1ccc(C(=O)C2=C(O)[C@]3(CC=C(C)C)C[C@@H](C/C=C(\\C)CCC=C(C)C)[C@](C)(CCC=C(C)C)[C@](CC=C(C)C)(C2=O)C3=O)cc1OC(C)=O", "reported-relation": "=", "IC50 (µM)": 15.7}
{"molecule": "CC(C)=CCC/C(C)=C/C[C@@H]1C[C@]2(CC=C(C)C)C(=O)[C@@](CC=C(C)C)(C(=O)C(C(=O)c3ccc(OCC(=O)O)c(OCC(=O)O)c3)=C2O)[C@@]1(C)CCC=C(C)C", "reported-relation": ">", "IC50 (µM)": 20}
{"molecule": "COC(=O)COc1cc(C(=O)C2=C(O)[C@]3(CC=C(C)C)C[C@@H](C/C=C(\\C)CCC=C(C)C)[C@](C)(CCC=C(C)C)[C@](CC=C(C)C)(C2=O)C3=O)ccc1OCC(=O)O", "reported-relation": ">", "IC50 (µM)": 20}
{"molecule": "CC(C)=CCC/C(C)=C/C[C@@H]1C[C@@]2(CC=C(C)C)C(=O)C3=C(OC4C=C(O)C(=O)C=C4C3=O)[C@](CC=C(C)C)(C2=O)[C@@]1(C)CCC=C(C)C (stereo not given in full)", "reported-relation": "=", "IC50 (µM)": 7.72}
{"molecule": "CC(C)=CCC/C(C)=C/C[C@@H]1C[C@]2(CC=C(C)C)C(=O)[C@@](CC=C(C)C)(C(=O)C(C(=O)c3ccc(O)c(OC(=O)CCCC[C@@H]4SCC5NC(=O)NC54)c3)=C2O)[C@@]1(C)CCC=C(C)C (stereo not given in full)", "reported-relation": "=", "IC50 (µM)": 12.2}

---

- Test system: A549
- method-summary: Cytotoxicity against human A549 cells assessed as growth inhibition after 72 hrs by MTT assay
- condition-summary: A549, 72 h
pIC50: −log10 of the molar value.

{"compound": "CC(C)=CCC/C(C)=C/C[C@@H]1C[C@]2(CC=C(C)C)C(=O)[C@@](CC=C(C)C)(C(=O)C3=C2OC2C=C(O)C(=O)C=C2C3=O)[C@@]1(C)CCC=C(C)C (stereo partly specified)", "assay-target": "A549", "reported-relation": "=", "pIC50": 4.88}
{"compound": "CC(C)=CCC/C(C)=C/C[C@@H]1C[C@@]2(CC=C(C)C)C(=O)C3=C(OC4C=C(O)C(=O)C=C4C3=O)[C@](CC=C(C)C)(C2=O)[C@@]1(C)CCC=C(C)C (stereo partly specified)", "assay-target": "A549", "reported-relation": "=", "pIC50": 5.01}
{"compound": "CC(C)=CCC/C(C)=C/C[C@@H]1C[C@]2(CC=C(C)C)C(=O)[C@@](CC=C(C)C)(C(=O)C(Cc3ccc(O)c(O)c3)=C2O)[C@@]1(C)CCC=C(C)C", "assay-target": "A549", "reported-relation": "<", "pIC50": 4.70}
{"compound": "COC(=O)COc1cc(C(=O)C2=C(O)[C@]3(CC=C(C)C)C[C@@H](C/C=C(\\C)CCC=C(C)C)[C@](C)(CCC=C(C)C)[C@](CC=C(C)C)(C2=O)C3=O)ccc1OCC(=O)O", "assay-target": "A549", "reported-relation": "<", "pIC50": 4.70}
{"compound": "COC(=O)COc1ccc(C(=O)C2=C(O)[C@]3(CC=C(C)C)C[C@@H](C/C=C(\\C)CCC=C(C)C)[C@](C)(CCC=C(C)C)[C@](CC=C(C)C)(C2=O)C3=O)cc1OCC(=O)O", "assay-target": "A549", "reported-relation": "<", "pIC50": 4.70}
{"compound": "CC(C)=CCC/C(C)=C/C[C@@H]1C[C@]2(CC=C(C)C)C(=O)[C@@](CC=C(C)C)(C(=O)C(OC(=O)c3ccc(O)c(O)c3)=C2O)[C@@]1(C)CCC=C(C)C", "assay-target": "A549", "reported-relation": "=", "pIC50": 4.88}
